- protocolDetails: Thermodynamic solubility assay (PBS pH 6.5; isopropyl myristate)
- Format: physicochemical
- setupConditions: aqueous buffer, thermodynamic from solid, PBS buffer pH 6.5, about 25° C., read-out: Thermodynamic Solubility pH = 6.5
reportedProperty: solubility thermodynamic at 24 h (µg/mL)
Could you give me the number in µg/mL? Just the number is fine.

compound	unitsSymbol	solubility thermodynamic at 24 h
C[C@@H]1CCN(C(=O)CC#N)C[C@@H]1N(C)c1ncnc2c1ccn2C(=O)N(C)CCOC(=O)C1CCOC1 (stereo partly shown) [Compound A8]	µg/mL	2940
C[C@@H]1CCN(C(=O)CC#N)C[C@@H]1N(C)c1ncnc2c1ccn2C(=O)N(C)CCOC(=O)C1CCCO1 (stereo partly shown) [Compound A7]	µg/mL	4390
CCCC(CC)C(=O)OCCN(C)C(=O)n1ccc2c(N(C)[C@H]3CN(C(=O)CC#N)CC[C@H]3C)ncnc21 (stereo partly shown) [Compound A12]	µg/mL	16

Next item in the queue.
Supply reported solubility thermodynamic at 24 h belonging to this compound: C[C@@H]1CCN(C(=O)CC#N)C[C@@H]1N(C)c1ncnc2c1ccn2C(=O)N(C)CCOC(=O)C1CCC(F)(F)CC1 [Compound A2] 240

---

- protocolDetails: Plasma stability, mini pig plasma
- Type: in vitro ADME, Mini Pigs
- setupConditions: 37° C., 60 min
// assign MET if % Retained falls strictly below 1%, else NOT MET (ties count as NOT MET)

Consider the following illustrative entries.
smilesText	classLabel
C[C@@H]1CCN(C(=O)CC#N)C[C@@H]1N(C)c1ncnc2c1ccn2C(=O)N(C)CCOC(=O)C1CCN(C)CC1	NOT MET
C[C@@H]1CCN(C(=O)CC#N)C[C@@H]1N(C)c1ncnc2c1ccn2C(=O)N(C)CCOC(=O)C1CCCCC1	MET
CC(C)C(=O)OCCN(C)C(=O)n1ccc2c(N(C)[C@H]3CN(C(=O)CC#N)CC[C@H]3C)ncnc21	NOT MET

Decide: % Retained of CC(=O)OCCN(C)C(=O)n1ccc2c(N(C)[C@H]3CN(C(=O)CC#N)CC[C@H]3C)ncnc21 strictly below 1%? NOT MET

I wonder whether COCCOCC(=O)OCCN(C)C(=O)n1ccc2c(N(C)[C@H]3CN(C(=O)CC#N)CC[C@H]3C)ncnc21 has % Retained below 1%. Can you tell? NOT MET

Take the compound C[C@@H]1CCN(C(=O)CC#N)C[C@@H]1N(C)c1ncnc2c1ccn2C(=O)N(C)CCOC(=O)c1ccncc1 and say whether its % Retained is less than 1%. NOT MET

Would you kindly verify if % Retained of C[C@@H]1CCN(C(=O)CC#N)C[C@@H]1N(C)c1ncnc2c1ccn2C(=O)N(C)CCOC(=O)C(C)(C)C is strictly less than 1%? NOT MET

Threshold test, % Retained < 1%: CCCCC(=O)OCCN(C)C(=O)n1ccc2c(N(C)[C@H]3CN(C(=O)CC#N)CC[C@H]3C)ncnc21 MET

---

- protocolDetails: Plasma stability, mini pig plasma
- Assay type: in vitro ADME, Mini Pigs
- setupConditions: 37° C., 10 min
% Retained values by entry
Express your answer in %, writing the number without its unit.

smilesText	unitsSymbol	% Retained
CC(=O)OCCN(C)C(=O)n1ccc2c(N(C)[C@H]3CN(C(=O)CC#N)CC[C@H]3C)ncnc21	%	85.3
CCCCC(=O)OCCN(C)C(=O)n1ccc2c(N(C)[C@H]3CN(C(=O)CC#N)CC[C@H]3C)ncnc21	%	25.5
C[C@@H]1CCN(C(=O)CC#N)C[C@@H]1N(C)c1ncnc2c1ccn2C(=O)N(C)CCOC(=O)c1ccncc1	%	88.3

# input for lookup
Recall and state the measured % Retained for C[C@@H]1CCN(C(=O)CC#N)C[C@@H]1N(C)c1ncnc2c1ccn2C(=O)N(C)CCOC(=O)C(C)(C)C . 75.1
